Biological target: T1, APACP, ACP of the glycolipid PKS in Anabaena
T1 chain: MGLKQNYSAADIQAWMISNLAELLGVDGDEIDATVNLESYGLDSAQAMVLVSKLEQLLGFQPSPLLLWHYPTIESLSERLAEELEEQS
reported.endpoint: kcat/Km (M⁻¹ s⁻¹)
Answers are plain numbers, in M⁻¹ s⁻¹.

protein | scale.unit | measured.value
Sfp, phosphopantetheinyl transferase from Bacillus subtilis (protein) MKIYGIYMDRPLSQEENERFMTFISPEKREKCRRFYHKEDAHRTLLGDVLVRSVISRQYQLDKSDIRFSTQEYGKPCIPDLPDAHFNISHSGRWVIGAFDSQPIGIDIEKTKPISLEIAKRFFSKTEYSDLLAKDKDEQTDYFYHLWSMKESFIKQEGKGLSLPLDSFSVRLHQDGQVSIELPDSHSPCYIKTYEVDPGYKMAVCAAHPDFPEDITMVSYEELL | M⁻¹ s⁻¹ | 25000

Please go through the list and note kcat/Km for each protein.
1. APPT, Sfp-like phosphopantetheinyl transferase (PPTase) from Anabaena sp. PCC7120 (protein) MLQHTWLPKPPNLTLLSDEVHLWRIPLDQPESQLQDLAATLSSDELARANRFYFPEHRRRFTAGRGILRSILGGYLGVEPGQVKFDYESRGKPILGDRFAESGLLFNLSHSQNLALCAVNYTRQIGIDLEYLRPTSDLESLAKRFFLPREYELLRSLPDEQKQKIFFRYWTCKEAYLKATGDGIAKLEEIEIALTPTEPAKLQTAPAWSLLELVPDDNCVAAVAVAGFGWQPKFWHY
2. SPPT, Sfp-like phosphopantetheinyl transferase (PPTase) from Synechocystis sp. PCC6803 (protein) MLPQPQIWLCPTDRPLIPGYQALLSSEEMARGERYQRPQDKQRFLTMRLALRILLARQLDCLPQQLQFTYGPQGKPELVDRERRSPWFNVAHSGNYGLIGLSTEGEIGVDLQIMLPKPHYLKLAKRFFAPQEVQQLESLEGEKRTKLFYQLWTAKEAFLKATGKGISGGLNQVIPDENLAKYQYLPDSGDTNHWRLSSQPLLADQGSNDNYWMAIAWCTNEVNQVESNYLPNIQPFQWPRNLDSLP
3. MPPT, Sfp-like phosphopantetheinyl transferase (PPTase) from Microcystis aeruginosa NIES843 (protein) MFISTDEVHLYFISLDPSGDRLETLASLLSEDEIIRANRYHFPEHKRRFLVARGCLREILGSYLAISPEKIEFIYSERGKPSINYQLQFNLSHSEEMAICGLTLTARIGVDLEKMRQMKDLDSLTKRFFCAREHELVEKSAEKEKLFFQLWTAKEAYLKAVGTGISGGLDRVEVGLNPLKLDNVAGEWQLWTAAIGDNYRATVVIEGSDRVIKTFGLSDL

Result:
1. 26700
2. 8330
3. 15000
